# IC50 annotations
target_under_test: S. aureus ATCC 29213 FabI (Staphylococcus aureus)
Sequence (Q6GI75 1-256): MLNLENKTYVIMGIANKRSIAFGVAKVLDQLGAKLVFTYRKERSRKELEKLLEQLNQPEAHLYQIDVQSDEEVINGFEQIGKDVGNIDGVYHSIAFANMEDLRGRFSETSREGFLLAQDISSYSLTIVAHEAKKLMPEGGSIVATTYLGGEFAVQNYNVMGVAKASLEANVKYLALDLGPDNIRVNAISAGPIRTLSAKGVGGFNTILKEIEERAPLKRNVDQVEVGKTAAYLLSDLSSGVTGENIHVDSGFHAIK
experiment_notes: Staphylococcus aureus FabI enzyme inhibition assay
Format: biochemical
experimental_conditions: read-out: FabI (300.235) IC50 (converted)
Response body: numeric value in µM, unit text excluded.

-- ask Missing value: IC50, S. aureus ATCC 29213 FabI (Staphylococcus aureus), entry O=C(Nc1ccc(/C=C/C(=O)N2CC3C=C(c4ccccc4)CC3C2)cn1)c1ccccc1 (stereo not shown) . Fill in?
-- reply 3.56

-- ask Lab note: need IC50 with S. aureus ATCC 29213 FabI (Staphylococcus aureus) for entry CN1CC(=O)Nc2ncc(/C=C/C(=O)N3CC4C=C(c5ccccc5)CC4C3)cc2C1 (stereo not shown) , please look it up.
-- reply 0.965

-- ask Item: Cc1cncc(C(=O)Nc2ccc(/C=C/C(=O)N3CC4C=C(c5ccccc5)CC4C3)cn2)c1 (stereo not shown) Test system: S. aureus ATCC 29213 FabI (Staphylococcus aureus) Read-out: IC50 Value: ?
-- reply 1.82
